Values from patent US6858591B2

tested on: C. albicans GC 3066; assay: In vitro MIC, broth dilution; assay type: cell-based; settings: Candida albicans, GC3066; C. albicans GC 3066; read-out: MIC
measurement label: MIC

[[record]]
compound = "COc1ccc(Cn2c(=O)ccn([C@@H]3OC([C@H](O)[C@H](NCCCNC(=O)[C@@H](N)CC(C)C)C(=O)O)[C@@H](O)[C@H]3O)c2=O)cc1 (stereo partly drawn)"
measurement_label = "MIC"
result = "128 µg/mL"

[[record]]
compound = "CC(C)C[C@H](N)C(=O)NCCCN[C@H](C(=O)OC(C)(C)C)[C@@H](O)C1O[C@@H](n2ccc(=O)[nH]c2=O)[C@H](O[Si](C)(C)C(C)(C)C)[C@@H]1O[Si](C)(C)C(C)(C)C (stereo partly drawn)"
measurement_label = "MIC"
result = "32 µg/mL"

[[record]]
compound = "CCOC(=O)C(NCCCNC(=O)[C@@H](N)[C@H](C)O)[C@@H](O)[C@H]1O[C@@H](n2ccc(=O)[nH]c2=O)[C@H](OC(C)=O)[C@@H]1OC(C)=O (stereo partly drawn)"
measurement_label = "MIC"
result = "> 128 µg/mL"

[[record]]
compound = "COc1ccc(Cn2c(=O)ccn([C@@H]3OC([C@H](O)[C@H](NCCCNC(=O)[C@@H](N)[C@H](C)O)C(=O)OC(C)(C)C)[C@@H](O[Si](C)(C)C(C)(C)C)[C@H]3O[Si](C)(C)C(C)(C)C)c2=O)cc1 (stereo partly drawn)"
measurement_label = "MIC"
result = "> 128 µg/mL"


Batch request: MIC per item, same order as input.
1. COc1ccc(Cn2c(=O)ccn([C@@H]3OC([C@H](O)[C@H](NCCCNC(=O)[C@@H](NC(=O)OCc4ccccc4)C(C)O)C(=O)O)[C@@H](O)C3O[Si](C)(C)C(C)(C)C)c2=O)cc1 (stereo in doubt)
2. COc1ccc(Cn2c(=O)ccn([C@@H]3OC([C@H](O)[C@H](NCCCNC(=O)[C@H](CC(C)C)NC(=O)[C@H](CCCNC(=N)N)NC(=O)N[C@H](C(=O)O)C(C)C)C(=O)O)[C@@H](O)[C@H]3O)c2=O)cc1 (stereo partly drawn)
3. COc1ccc(Cn2c(=O)ccn([C@@H]3OC(C(O)[C@H](NCCCNC(=O)[C@@H](N)CC(=O)O)C(=O)OC(C)(C)C)[C@@H](O[Si](C)(C)C(C)(C)C)[C@H]3O[Si](C)(C)C(C)(C)C)c2=O)cc1 (stereo in doubt)

Reply text:
["128 µg/mL", "128 µg/mL", "> 128 µg/mL"]

Please go through the list and note MIC for each compound.
1. COc1ccc(Cn2c(=O)ccn([C@@H]3OC([C@H](O)[C@H](NCCCNC(=O)[C@H](C)N)C(=O)OC(C)(C)C)[C@@H](O[Si](C)(C)C(C)(C)C)[C@H]3O[Si](C)(C)C(C)(C)C)c2=O)cc1 (stereo partly drawn)
2. COc1ccc(Cn2c(=O)ccn([C@@H]3OC([C@H](O)[C@H](NCCCNC(=O)[C@@H](N)CC(C)C)C(=O)OC(C)(C)C)[C@@H](O[Si](C)(C)C(C)(C)C)[C@H]3O[Si](C)(C)C(C)(C)C)c2=O)cc1 (stereo partly drawn)

Reply text:
1. 64 µg/mL
2. > 128 µg/mL
